The values you see were collected from patent US6756359B2.

Test system: S. epidermidis Step_f50654 Pen S
Test: Antibacterial activity in vitro, MIC by broth microdilution
Assay type: cell-based
Conditions: Table 5, Strain ID C: S. epidermidis Step_f50654; unit assumed
Procedure: Representative compounds of the present invention were assayed in vitro for antibacterial activity against the bacterial isolates listed in Table 1 as follows: […] MICs are determined by the broth microdilution method in accordance with the NCCLS guidelines. […] Following appropriate incubation, the MIC is determined and the MIC is defined as the lowest concentration of the drug that prevented visible growth.
property_measured: MIC (µg/mL)

CC[C@H]1OC(=O)[C@H](C)C(=O)[C@H](C)[C@@H](OC2O[C@H](C)C[C@H](N(C)C)[C@H]2O)[C@@](C)(OC)C[C@@H](C)C(=O)[C@H](C)[C@H]2N(CCCCn3cnc(-c4ccc(C)nc4)c3)C(=O)O[C@]12CC (some centres unmarked) [Example 29] : 0.4
CC[C@H]1OC(=O)[C@@](C)(F)C(=O)[C@H](C)[C@@H](OC2O[C@H](C)C[C@H](N(C)C)[C@H]2O)[C@@](C)(OC)C[C@@H](C)C(=O)[C@H](C)[C@H]2N(CCCCc3ccnc4ccccc34)C(=O)O[C@]12CC (some centres unmarked) [Example 17] : 0.4

---

System: S. pneumoniae Stpn_Erm 6849
Assay: Antibacterial activity in vitro, MIC by broth microdilution
Format: cell-based, Streptococcus pneumoniae
Settings: Table 5, Strain ID I: S. pneumoniae Stpn_Erm 6849; unit assumed
Experimental: Representative compounds of the present invention were assayed in vitro for antibacterial activity against the bacterial isolates listed in Table 1 as follows: […] MICs are determined by the broth microdilution method in accordance with the NCCLS guidelines. […] Following appropriate incubation, the MIC is determined and the MIC is defined as the lowest concentration of the drug that prevented visible growth.
property_measured: MIC (µg/mL)

CC[C@H]1OC(=O)[C@H](C)C(=O)[C@H](C)[C@@H](OC2O[C@H](C)C[C@H](N(C)C)[C@H]2O)[C@@](C)(OC)C[C@@H](C)C(=O)[C@H](C)[C@H]2N(CCCOc3ccc(-c4cccnc4)cc3)C(=O)O[C@]12CC (stereo partly shown) : 0.1
CC[C@H]1OC(=O)[C@@](C)(F)C(=O)[C@H](C)[C@@H](OC2O[C@H](C)C[C@H](N(C)C)[C@H]2O)[C@@](C)(OC)C[C@@H](C)C(=O)[C@H](C)[C@H]2N(CCCCc3ccnc4ccccc34)C(=O)O[C@]12CC (stereo partly shown) : 0.78
CC[C@H]1OC(=O)[C@H](C)C(=O)[C@H](C)[C@@H](OC2O[C@H](C)C[C@H](N(C)C)[C@H]2O)[C@@](C)(OC)C[C@@H](C)C(=O)[C@H](C)[C@H]2N(CCCCn3cnc4ncccc43)C(=O)O[C@]12CC (stereo partly shown) : 0.2
CC[C@H]1OC(=O)[C@H](C)C(=O)[C@H](C)[C@@H](OC2O[C@H](C)C[C@H](N(C)C)[C@H]2O)[C@@](C)(OC)C[C@@H](C)C(=O)[C@H](C)[C@H]2N(CCCCn3cnc4cccnc43)C(=O)O[C@]12CC (stereo partly shown) : 0.4
CC[C@H]1OC(=O)[C@@](C)(F)C(=O)[C@H](C)[C@@H](OC2O[C@H](C)C[C@H](N(C)C)[C@H]2O)[C@@](C)(OC)C[C@@H](C)C(=O)[C@H](C)[C@H]2N(CCCCn3cnc4ncccc43)C(=O)O[C@]12CC (stereo partly shown) : 3.13
CC[C@H]1OC(=O)[C@H](C)C(=O)[C@H](C)[C@@H](OC2O[C@H](C)C[C@H](N(C)C)[C@H]2O)[C@@](C)(OC)C[C@@H](C)C(=O)[C@H](C)[C@H]2N(CCCC(C)(C)n3cnc4cccnc43)C(=O)O[C@]12CC (stereo partly shown) : 0.4
C=C[C@]12OC(=O)N(CCCCn3cnc(-c4cccnc4)c3)[C@@H]1[C@@H](C)C(=O)[C@H](C)C[C@](C)(OC)[C@H](OC1O[C@H](C)C[C@H](N(C)C)[C@H]1O)[C@@H](C)C(=O)[C@](C)(F)C(=O)O[C@@H]2CC (stereo partly shown) : 0.1
CC[C@H]1OC(=O)[C@H](C)C(=O)[C@H](C)[C@@H](OC2O[C@H](C)C[C@H](N(C)C)[C@H]2O)[C@@](C)(OC)C[C@@H](C)C(=O)[C@H](C)[C@H]2N(CCCCn3cnc(-c4cccnc4)c3C)C(=O)O[C@]12CC (stereo partly shown) : 0.2

1: CC[C@H]1OC(=O)[C@H](C)C(=O)[C@H](C)[C@@H](OC2O[C@H](C)C[C@H](N(C)C)[C@H]2O)[C@@](C)(OC)C[C@@H](C)C(=O)[C@H](C)[C@H]2N(CCN(C)Cc3cccnc3)C(=O)O[C@]12CC (stereo partly shown)
2: CC[C@H]1OC(=O)[C@H](C)C(=O)[C@H](C)[C@@H](OC2O[C@H](C)C[C@H](N(C)C)[C@H]2O)[C@@](C)(OC)C[C@@H](C)C(=O)[C@H](C)[C@H]2N(CCCC(C)(C)n3cnc(-c4cccnc4)c3)C(=O)O[C@]12CC (stereo partly shown)
**Q:** Which entry shows the lesser value of MIC here, 1 or 2 ? Your answer should be the label attached to the chosen record.
**A:** 2
(2: 0.4 µg/mL, 1: 0.78 µg/mL)
